Cited source: patent US20230000876A1

# Experimental details: Pharmacokinetics and brain distribution after single oral dose, rats
# Format: in vivo, male Sprague-Dawley rats
# Recorded conditions: male, Sprague-Dawley, rat, plasma, single PO 100 mg/kg
Measurement kind: Tmax (h)
Express your answer in h, writing the number without its unit.

Exercise: Recorded Tmax for `CC(C)N1CCOc2c(F)cc(-c3nc(Nc4ccc(C5CCN(C)CC5)cn4)ncc3F)cc21` , please?
Key: 6

###

# Experimental details: Pharmacokinetics and brain distribution after single oral dose, rats
# Format: in vivo, male Sprague-Dawley rats
# Recorded conditions: male, Sprague-Dawley, rat, plasma, single PO 30 mg/kg (HCl salt, as free base), 24 h
Measurement kind: concentration at 24 h (ng/mL)
Express your answer in ng/mL, writing the number without its unit.

Exercise: Recorded concentration at 24 h for `CC(C)N1CCOc2c(F)cc(-c3nc(Nc4ccc(C5CCN(C)CC5)cn4)ncc3F)cc21` , please?
Key: 66.4

###

# Experimental details: Pharmacokinetics and brain distribution after single oral dose, rats
# Assay type: in vivo, male Sprague-Dawley rats
# Recorded conditions: male, Sprague-Dawley, rat, plasma, single PO 100 mg/kg (HCl salt, as free base), 6 h, read-out: Mean Plasma Concentration
Measurement kind: concentration at 6 h
Number plus unit, in that order.

Exercise: Recorded concentration at 6 h for `CC(C)N1CCOc2c(F)cc(-c3nc(Nc4ccc(C5CCN(C)CC5)cn4)ncc3F)cc21` , please?
Key: 243 ng/mL

###

# Experimental details: Pharmacokinetics and brain distribution after single oral dose, mice
# Type: in vivo, male CD1 mice
# Recorded conditions: male, CD1, mouse, brain; mice, single PO 10 mg/kg, 12 h; read-out: Brain Conc
# Procedure: The pharmacokinetics and brain distribution in maleCD1 mice and Sprague-Dawley rats following a single oral (PO) dose was evaluated. The compound of formula (I) was administered once at 10 mg/kg to mice and at 1, 10, 30, and 100 mg/kg to rats. All doses, compound of formula (I) concentrations, and derived PK parameters are expressed as the free base of the compound of formula (I). […]
Measurement kind: concentration at 12 h
Number plus unit, in that order.

Exercise: Recorded concentration at 12 h for `CC(C)N1CCOc2c(F)cc(-c3nc(Nc4ccc(C5CCN(C)CC5)cn4)ncc3F)cc21` , please?
Key: 345 ng/mL

###

# Experimental details: Pharmacokinetics and brain distribution after single oral dose, rats
# Type: in vivo, male Sprague-Dawley rats
# Recorded conditions: male, Sprague-Dawley, rat, plasma, single PO 100 mg/kg (HCl salt, as free base), 4 h
Measurement kind: concentration at 4 h (ng/mL)
Express your answer in ng/mL, writing the number without its unit.

Exercise: Recorded concentration at 4 h for `CC(C)N1CCOc2c(F)cc(-c3nc(Nc4ccc(C5CCN(C)CC5)cn4)ncc3F)cc21` , please?
Key: 151

###

# Experimental details: Pharmacokinetics and brain distribution after single oral dose, rats
# Assay type: in vivo, male Sprague-Dawley rats
# Recorded conditions: male, Sprague-Dawley, rat, plasma, single PO 1 mg/kg (HCl salt, as free base), 1 h
Measurement kind: concentration at 1 h (ng/mL)
Express your answer in ng/mL, writing the number without its unit.

Exercise: Recorded concentration at 1 h for `CC(C)N1CCOc2c(F)cc(-c3nc(Nc4ccc(C5CCN(C)CC5)cn4)ncc3F)cc21` , please?
Key: 1.52
